Taken from the supplement of paper PMC6555819.

Record form. Attribute: PBM binding z-score. Fill in for each entry.
Tested on: RARg homodimer (NR concentration 270 nM)
Experiment: PBM binding z-score (relative to random genomic background probes); higher = stronger binding; sequences stand for … in GC…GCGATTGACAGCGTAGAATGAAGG
Give bare numbers.

Solved cases below.
stdin: Can you look up the measured PBM binding z-score of `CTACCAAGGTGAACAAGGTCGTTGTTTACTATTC` for me?
stdout: 1.27

stdin: Can you look up the measured PBM binding z-score of `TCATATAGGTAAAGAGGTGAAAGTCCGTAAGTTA` for me?
stdout: 0.762

stdin: Can you look up the measured PBM binding z-score of `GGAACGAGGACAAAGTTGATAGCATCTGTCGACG` for me?
stdout: 1.2

stdin: Can you look up the measured PBM binding z-score of `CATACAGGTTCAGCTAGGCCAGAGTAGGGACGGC` for me?
stdout: 1.03

stdin: Can you look up the measured PBM binding z-score of `CGCACTAGGTCAGAACAGGACAGTGAAGGATGAT` for me?
stdout: 3.31

stdin: Can you look up the measured PBM binding z-score of `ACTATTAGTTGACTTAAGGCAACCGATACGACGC` for me?
stdout: 0.592

stdin: Can you look up the measured PBM binding z-score of `CTCGAAAGGTCGGTTGAGCTGAGTATACGGATAA` for me?
stdout: 2.29

stdin: Can you look up the measured PBM binding z-score of `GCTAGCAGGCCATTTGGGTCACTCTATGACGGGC` for me?
stdout: 0.994

stdin: Can you look up the measured PBM binding z-score of `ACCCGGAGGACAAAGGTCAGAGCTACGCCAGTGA` for me?
stdout: 5.22

stdin: Can you look up the measured PBM binding z-score of `ACTAGTTGGTCAGCTCAGGTCACACACAATTCGG` for me?
stdout: 2.88

The following sequences each have a reported value; give each one's PBM binding z-score.
1. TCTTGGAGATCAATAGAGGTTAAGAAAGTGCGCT
2. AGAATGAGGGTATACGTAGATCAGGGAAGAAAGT

stdout:
1: 0.376; 2: 0.277

The following sequences each have a reported value; give each one's PBM binding z-score.
1. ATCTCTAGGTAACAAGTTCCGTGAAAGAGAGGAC
2. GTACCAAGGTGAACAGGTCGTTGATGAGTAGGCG
3. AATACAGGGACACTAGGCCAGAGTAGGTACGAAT
4. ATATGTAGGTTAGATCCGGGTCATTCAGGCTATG
5. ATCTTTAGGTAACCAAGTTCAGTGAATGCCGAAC
6. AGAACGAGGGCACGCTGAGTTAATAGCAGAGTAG

stdout:
0.586
1.02
0.984
1.63
1.04
2.41

The following sequences each have a reported value; give each one's PBM binding z-score.
1. TCTGCTAGTTCAACGATGGTCAGCTAATCTGCTA
2. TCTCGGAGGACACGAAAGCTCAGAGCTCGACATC

stdout:
1: 1.03; 2: 1.19

The following sequences each have a reported value; give each one's PBM binding z-score.
1. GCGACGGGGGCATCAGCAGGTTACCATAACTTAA
2. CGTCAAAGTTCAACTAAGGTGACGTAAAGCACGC
3. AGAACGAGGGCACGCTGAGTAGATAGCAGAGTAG
4. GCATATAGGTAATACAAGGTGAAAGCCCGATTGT
5. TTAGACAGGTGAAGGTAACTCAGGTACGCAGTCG
6. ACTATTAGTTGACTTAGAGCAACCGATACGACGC

stdout:
1: 2.7; 2: 6.76; 3: 2.23; 4: 0.56; 5: 0.81; 6: 0.597
